Source: patent US20100260765A1

Molecular target: T1, mouse KDR (Flk-1)/Fc (Cat. #443-KD/CF, R&D Systems, Inc.) (mouse, UniProt P35918 20-762)
T1 construct: Bought reagent; also called mouse VEGFR2; KDR mouse ortholog; not shown: Fc of the bought fusion protein
T1 sequence (P35918 20-762 limits assumed): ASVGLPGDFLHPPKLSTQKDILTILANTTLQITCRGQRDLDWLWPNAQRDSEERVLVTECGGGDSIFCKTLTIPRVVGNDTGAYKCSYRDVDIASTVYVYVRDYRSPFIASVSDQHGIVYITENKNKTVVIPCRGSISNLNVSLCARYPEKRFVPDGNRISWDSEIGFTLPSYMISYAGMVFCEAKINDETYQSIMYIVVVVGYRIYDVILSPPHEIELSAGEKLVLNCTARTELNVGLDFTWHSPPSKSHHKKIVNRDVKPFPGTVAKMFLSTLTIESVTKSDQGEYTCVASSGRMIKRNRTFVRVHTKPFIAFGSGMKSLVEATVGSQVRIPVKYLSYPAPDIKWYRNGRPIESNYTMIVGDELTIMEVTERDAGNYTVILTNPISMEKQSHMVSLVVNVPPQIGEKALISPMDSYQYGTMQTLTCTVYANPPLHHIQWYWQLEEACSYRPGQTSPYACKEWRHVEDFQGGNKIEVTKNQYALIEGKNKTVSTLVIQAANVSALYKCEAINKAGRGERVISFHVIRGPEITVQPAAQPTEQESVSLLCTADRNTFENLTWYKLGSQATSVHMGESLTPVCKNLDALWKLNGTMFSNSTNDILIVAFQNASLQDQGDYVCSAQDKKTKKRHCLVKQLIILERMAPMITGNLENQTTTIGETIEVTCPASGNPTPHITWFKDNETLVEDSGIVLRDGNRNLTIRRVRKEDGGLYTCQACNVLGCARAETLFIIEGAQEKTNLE
Assay: ELISA, Flk-1 coat 5 ug/mL, antibody 0.1 ug/mL
Method: The cross-reactivity of purified antibodies was tested against KDR mouse ortholog KDR mouse ortholog (mouse VEGFR2, or Flk-1) and human VEGFR1 (Flt-1). The ability of the antibodies to bind soluble KDR Ig4-7 domain and to the entire KDR extracellular domain (ECD) was also measured. Cross-reactivity experiments were carried out and measured using an ELISA based assay as described in Example 6. […] Antibody controls included IgG1 and IgG4 (Sigma-Aldrich, Cat. #15154 and #14639, respectively).
measured-parameter: ELISA reading
Reply with the value as a number alone.

Sample records with ELISA reading:
33C3 (antibody, V domains shown, Fully human monoclonal antibody from a XenoMouse hybridoma (IgG2 or IgG4 strain), purified) VH: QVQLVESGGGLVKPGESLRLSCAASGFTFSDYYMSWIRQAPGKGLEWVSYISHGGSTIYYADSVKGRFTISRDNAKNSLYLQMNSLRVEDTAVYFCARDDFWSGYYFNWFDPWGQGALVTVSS VL: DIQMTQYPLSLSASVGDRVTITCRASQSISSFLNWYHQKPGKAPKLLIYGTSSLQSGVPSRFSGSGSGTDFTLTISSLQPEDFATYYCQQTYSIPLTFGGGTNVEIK	3.04
33B1 (antibody, V domains shown, Fully human monoclonal antibody from a XenoMouse hybridoma (IgG2 or IgG4 strain), purified) VH: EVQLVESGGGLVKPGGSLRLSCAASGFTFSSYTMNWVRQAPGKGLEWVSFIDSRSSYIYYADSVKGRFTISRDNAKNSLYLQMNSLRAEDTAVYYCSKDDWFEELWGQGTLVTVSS VL: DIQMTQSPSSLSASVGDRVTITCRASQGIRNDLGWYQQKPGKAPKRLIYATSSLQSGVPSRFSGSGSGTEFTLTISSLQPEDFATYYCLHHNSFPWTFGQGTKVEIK	2.1

Exercise: Could you tell me which ELISA reading is on file for 32G7 (antibody, V domains shown, Fully human monoclonal antibody from a XenoMouse hybridoma (IgG2 or IgG4 strain), purified) VH: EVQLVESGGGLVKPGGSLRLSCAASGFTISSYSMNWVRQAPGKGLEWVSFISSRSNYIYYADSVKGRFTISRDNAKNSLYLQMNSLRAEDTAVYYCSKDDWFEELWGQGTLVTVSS VL: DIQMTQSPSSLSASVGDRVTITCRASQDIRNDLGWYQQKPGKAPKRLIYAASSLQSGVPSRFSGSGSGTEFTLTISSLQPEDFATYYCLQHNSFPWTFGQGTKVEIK ?
Solution: 2.14
